Target: T1, EsCas13d, nuclease-dead (Eubacterium siraeum, UniProt B0MS50, R295A;H300A;R849A;H854A)
T1 sequence: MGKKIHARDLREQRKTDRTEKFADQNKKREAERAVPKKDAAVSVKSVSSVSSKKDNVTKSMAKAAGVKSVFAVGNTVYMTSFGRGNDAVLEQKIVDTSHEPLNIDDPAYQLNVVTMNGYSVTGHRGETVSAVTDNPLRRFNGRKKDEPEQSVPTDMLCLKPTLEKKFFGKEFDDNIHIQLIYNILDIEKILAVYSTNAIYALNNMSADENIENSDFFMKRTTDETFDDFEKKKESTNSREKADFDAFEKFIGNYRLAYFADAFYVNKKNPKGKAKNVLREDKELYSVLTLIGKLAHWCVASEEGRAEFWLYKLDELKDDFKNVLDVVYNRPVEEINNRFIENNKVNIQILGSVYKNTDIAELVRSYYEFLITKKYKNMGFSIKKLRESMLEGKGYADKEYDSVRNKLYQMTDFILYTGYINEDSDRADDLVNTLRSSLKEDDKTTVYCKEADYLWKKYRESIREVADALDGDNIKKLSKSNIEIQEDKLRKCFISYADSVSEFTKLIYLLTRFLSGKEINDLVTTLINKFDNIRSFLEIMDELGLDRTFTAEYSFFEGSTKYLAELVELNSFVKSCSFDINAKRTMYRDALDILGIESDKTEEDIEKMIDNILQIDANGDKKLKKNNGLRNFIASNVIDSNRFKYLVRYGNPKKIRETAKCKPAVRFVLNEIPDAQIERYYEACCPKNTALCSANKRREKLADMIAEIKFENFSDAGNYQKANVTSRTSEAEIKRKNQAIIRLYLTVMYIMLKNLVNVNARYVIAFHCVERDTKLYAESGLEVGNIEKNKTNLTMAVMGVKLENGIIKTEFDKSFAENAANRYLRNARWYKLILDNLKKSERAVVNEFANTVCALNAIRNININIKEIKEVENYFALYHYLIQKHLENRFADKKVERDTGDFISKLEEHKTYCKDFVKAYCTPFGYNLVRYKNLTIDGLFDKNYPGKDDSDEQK
Experiment: crRNA (strand 1, pre-loaded); Mg2+; 40 mM Tris-HCl pH 7.5, 150 mM NaCl, 6 mM MgCl2, 1 mM DTT, 0.1% Tween-20, 0.2 mg/ml BSA; 25 C; 10 min per concentration, then washed
Conditions: tags: His6-TwinStrep-SUMO cleaved; N-terminal SNAP kept (SNAP-Surface 488); label: 3' end held by stalled T7 RNA polymerase
Measurement Label: Kd (nM)
Give the value in nM but do not write nM after it.

[
  {
    "Binder": "target 1 insC 3' of 19,insG 3' of 4 (mixed) RNA 1: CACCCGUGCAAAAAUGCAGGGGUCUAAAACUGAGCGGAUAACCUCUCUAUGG RNA 2: GGGAAUGGAUCCACAUCUACGAAUUCGUACCAUCAGAGAGGUUAUCCGCGUCACCGAGAUCGGAAGAGCACACGU",
    "Scale Unit": "nM",
    "Kd": 21.5
  }
]

Consider now this further binder.
**Q:** Fill blank: measured Kd of the binder target 1 MT 5'PFS AAA 3'PFS AUG (mixed) RNA 1: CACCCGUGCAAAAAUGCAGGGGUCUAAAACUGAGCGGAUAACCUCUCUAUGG RNA 2: GGGAAUGGAUCCACAUCUACGAAUUCAAACCAUAGAGAGGUUAUCCGCUCAAUGAGAUCGGAAGAGCACACGU is ____.
**A:** 28.5
